- experimental_protocol: Brain levels of J147 after oral administration in Basis suspension
- Type: in vivo, Adult Wister Rats
- run_conditions: Wistar, rat, brain homogenate, po, 20 mg/kg, oral 20 mg/kg in Basis suspension, PO_B satellite; 8 h; brain homogenate 1:3; Group 1, Group 2; LLOQ 2 ng/g; read-out: Brain Detected Conc.
recorded_metric: concentration at 8 h (ng/mL)
Reply numerically in ng/mL, unit not repeated.

-- ask Looking for the measured concentration at 8 h of COc1cccc(/C=N/N(C(=O)C(F)(F)F)c2ccc(C)cc2C)c1 , can you help?
-- reply 0.831

====

- experimental_protocol: Pharmacokinetic plasma parameters of J147, oral and intravascular administration
- Type: in vivo, Adult Wister Rats
- run_conditions: Wistar, rat, plasma, iv, 5 mg/kg, IV 5 mg/kg; Mean of 4 animals
recorded_metric: half-life
The reply must contain the numeric value and, after it, the unit.

-- ask Return reported half-life; argument: COc1cccc(/C=N/N(C(=O)C(F)(F)F)c2ccc(C)cc2C)c1
-- reply 59.2 min

Attribution: patent US20220273590A1
